Readings of Activity for the listed compounds
- Target Or Test System: Polyunsaturated fatty acid 5-lipoxygenase (Homo sapiens) (UniProt P09917)
- Sequence (P09917 whole entry): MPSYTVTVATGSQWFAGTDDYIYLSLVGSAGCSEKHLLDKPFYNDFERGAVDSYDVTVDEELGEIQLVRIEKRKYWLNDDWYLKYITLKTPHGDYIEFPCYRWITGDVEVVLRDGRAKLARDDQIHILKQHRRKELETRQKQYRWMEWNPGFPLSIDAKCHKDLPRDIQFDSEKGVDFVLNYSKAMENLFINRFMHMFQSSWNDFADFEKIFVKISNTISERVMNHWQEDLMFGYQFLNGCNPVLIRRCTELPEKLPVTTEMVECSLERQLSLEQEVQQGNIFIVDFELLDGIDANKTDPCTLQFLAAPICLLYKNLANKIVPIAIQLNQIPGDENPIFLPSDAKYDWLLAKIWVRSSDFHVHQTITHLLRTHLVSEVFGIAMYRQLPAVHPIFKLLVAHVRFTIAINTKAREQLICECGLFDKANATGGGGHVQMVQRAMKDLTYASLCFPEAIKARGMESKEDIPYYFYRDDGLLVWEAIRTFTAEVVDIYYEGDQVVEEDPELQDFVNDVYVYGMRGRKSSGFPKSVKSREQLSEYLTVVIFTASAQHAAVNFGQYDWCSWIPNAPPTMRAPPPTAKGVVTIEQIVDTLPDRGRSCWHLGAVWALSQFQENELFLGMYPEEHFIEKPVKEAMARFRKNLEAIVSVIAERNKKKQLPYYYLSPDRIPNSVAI
- Method: Inhibition of human recombinant 5-lipoxygenase expressed in Escherichia coli MV1190 assessed as suppression of CaCl2/arachidonic acid-induced product formation at 30 uM
- Set-up: scale not given: the % may be the effect or the level left
Express your answer in %, writing the number without its unit.

Study these solved cases before continuing.
1) CCCCCCC(Sc1nc(Cl)cc(Oc2ccc3ncccc3c2)n1)C(=O)O (stereo unspecified) : 72.6
2) CCCCCCC(Sc1nc(Cl)cc(Oc2ccc3ncccc3c2)n1)C(=O)OCC (stereo unspecified) : 59.2
3) CCCCCCC(Sc1nc(Cl)cc(NCc2ccc3ncccc3c2)n1)C(=O)O (stereo unspecified) : 51

Data request: Value lookup for Activity; key = CCCCCCC(Sc1nc(Cl)cc(Nc2ccc3ncccc3c2)n1)C(=O)OCC (stereo unspecified)
Data returned: 43.8

Data request: Value lookup for Activity; key = CCCCCCC(Sc1nc(Cl)cc(Nc2ccc3ncccc3c2)n1)C(=O)O (stereo unspecified)
Data returned: 52.7

Data request: Value lookup for Activity; key = CCCCCCC(Sc1nc(Cl)cc(NCc2ccc3ncccc3c2)n1)C(=O)OCC (stereo unspecified)
Data returned: 56

Origin of values: ChEMBL document CHEMBL1140046
